runDescription: Four-way crossover pharmacokinetic study of omeprazole (limited colonic absorption)
Type: in vivo
experimentalConditions: human, plasma, oral, 20 mg, 20 mg fed; one of the subjects removed from the analysis; read-out: relative bioavailability in the fed state compared to fasting
endpointLabel: bioavailability (%)
One number for each entry, in %.

Supply bioavailability value. Item: COc1ccc2[nH]c([S+]([O-])Cc3ncc(C)c(OC)c3C)nc2c1 (stereo not shown)
96

----------
runDescription: Four-way crossover pharmacokinetic study of omeprazole (limited colonic absorption)
Type: in vivo
experimentalConditions: human, plasma, other: ENTERION capsule activated in the terminal ileum, 20 mg, one subject, ENTERION capsule activated in the terminal ileum; read-out: relative bioavailability compared to fasted state
endpointLabel: bioavailability (%)
Give bare numbers, in %.

Supply bioavailability value. Item: COc1ccc2[nH]c([S+]([O-])Cc3ncc(C)c(OC)c3C)nc2c1 (stereo not shown) [omeprazole]
58
